The origin of these recorded values is patent US8022217B2.

assayedTarget: recombinant CETP (Homo sapiens, UniProt P11597)
Sequence (P11597 18-493): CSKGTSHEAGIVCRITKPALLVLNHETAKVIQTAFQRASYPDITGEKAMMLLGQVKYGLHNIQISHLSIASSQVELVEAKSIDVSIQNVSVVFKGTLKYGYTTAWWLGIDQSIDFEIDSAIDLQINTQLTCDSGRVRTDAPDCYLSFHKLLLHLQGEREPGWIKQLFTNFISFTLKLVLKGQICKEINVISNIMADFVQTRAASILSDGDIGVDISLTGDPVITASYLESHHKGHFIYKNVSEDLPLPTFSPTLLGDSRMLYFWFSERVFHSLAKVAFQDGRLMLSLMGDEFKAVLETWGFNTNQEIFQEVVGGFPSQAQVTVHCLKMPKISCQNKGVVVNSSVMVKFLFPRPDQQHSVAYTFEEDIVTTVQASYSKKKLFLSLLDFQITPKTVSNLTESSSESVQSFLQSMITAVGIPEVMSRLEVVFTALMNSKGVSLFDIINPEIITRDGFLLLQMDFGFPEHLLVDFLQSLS
experimentSummary: CETP in-vitro assay (Scintillation Proximity Assay, transfer of [3H] cholesteryl ester from HDL to biotinylated LDL)
Type: biochemical
setupConditions: 10 μmole concentration
readoutKind: inhibition at 10 µM
Express your answer as a number followed by its unit.

Task item: Under recombinant CETP (Homo sapiens, UniProt P11597): report inhibition at 10 µM of Cc1cc2c(c(C(=O)N(CCc3ccc(Cl)c(Cl)c3)Cc3ccc(C(C)(C)C)cc3)c1)NCCC2 [Compound 31] .
Reply: 82%

Task item: Under recombinant CETP (Homo sapiens, UniProt P11597): report inhibition at 10 µM of CCN(CC)c1ccc(CCN(Cc2ccc(C(C)(C)C)cc2)C(=O)c2cccc3c2NCCC3)cc1 [Compound 28] .
Reply: 80%

Task item: Under recombinant CETP (Homo sapiens, UniProt P11597): report inhibition at 10 µM of CC(C)(C)c1ccc(CN(CCc2ccc3c(c2)OCO3)C(=O)c2cccc3c2NCCC3)cc1 [Compound 38] .
Reply: 78%
